Assay: Volume of distribution at steady state in rat at 5 mg/kg, iv
Format: ADME, organism-based
Design: dose 5 mg/kg, route intravenous
Conditions: in vivo, read-out: Vdss
Measured Quantity: Vd (L/kg)

Some solved cases for reference:
>>> assay_value("Nc1ncc(-c2cc(N3CCOCC3)nc(N3CCOCC3)n2)c(C(F)(F)F)n1")
2.1
>>> assay_value("Nc1cc(C(F)(F)F)c(-c2cc(Nc3cnc4ccccc4c3)nc(N3CCOCC3)n2)cn1")
2.6
>>> assay_value("Nc1cc(Cl)c(-c2cc(N3CCOCC3)nc(N3CCOCC3)n2)cn1")
1.11

[P] N#Cc1cc(N)ncc1-c1cc(N2CCOCC2)nc(N2CCOCC2)n1
[Q] Nc1ncc(-c2cc(N3CCOCC3)nc(N3CCOCC3)n2)c(N)n1
Ask: Among P and Q , which shows a numerically higher Vd result? Let me know the label of the one you choose.
Result: Q
(Q: 4.5 L/kg, P: 1.6 L/kg)

###

Test: Half life in beagle dog at 1 mg/kg, iv
Type: ADME, organism-based, Canis lupus familiaris
Design: dose 1 mg/kg, route intravenous
Conditions: in vivo
Measured Quantity: half-life (h)
API: value field is a number in h; no unit string.

Ask: Identify measured half-life corresponding to Nc1cc(C(F)(F)F)c(-c2cc(N3CCOCC3)nc(N3CCOCC3)n2)cn1 [BUPARLISIB]
Result: 6.6

###

Experiment: Clearance in CD1 mouse at 5 mg/kg, iv
Assay type: ADME, organism-based
Parameters: dose 5 mg/kg, route intravenous
Settings: in vivo
Measured Quantity: clearance (mL/min/kg)
API: value field is a number in mL/min/kg; no unit string.

Ask: Identify measured clearance corresponding to Nc1cc(C(F)(F)F)c(-c2cc(N3CCOCC3)nc(N3CCOCC3)n2)cn1 [BUPARLISIB]
Result: 11

###

Test: Clearance in cynomolgus monkey at 1 mg/kg, iv
Assay type: ADME, organism-based, Macaca fascicularis
Set-up: dose 1 mg/kg, route intravenous
Settings: in vivo
Measured Quantity: clearance (mL/min/kg)
API: value field is a number in mL/min/kg; no unit string.

Ask: Identify measured clearance corresponding to Nc1cc(C(F)(F)F)c(-c2cc(N3CCOCC3)nc(N3CCOCC3)n2)cn1 [BUPARLISIB]
Result: 13

###

Assay: Volume of distribution at steady state in cynomolgus monkey at 1 mg/kg, iv
Type: ADME, organism-based, Macaca fascicularis
Set-up: dose 1 mg/kg, route intravenous
Settings: in vivo, read-out: Vdss
Measured Quantity: Vd (L/kg)
API: value field is a number in L/kg; no unit string.

Ask: Identify measured Vd corresponding to Nc1cc(C(F)(F)F)c(-c2cc(N3CCOCC3)nc(N3CCOCC3)n2)cn1 [BUPARLISIB]
Result: 3.1

###

Test: Half life in CD1 mouse at 5 mg/kg, iv
Type: ADME, organism-based
Design: dose 5 mg/kg, route intravenous
Conditions: in vivo
Measured Quantity: half-life (h)
API: value field is a number in h; no unit string.

Ask: Identify measured half-life corresponding to Nc1cc(C(F)(F)F)c(-c2cc(N3CCOCC3)nc(N3CCOCC3)n2)cn1
Result: 1.6

###

Assay: Clearance in CD rat at 5 mg/kg, iv
Format: ADME, organism-based
Parameters: dose 5 mg/kg, route intravenous
Settings: in vivo
Measured Quantity: clearance (mL/min/kg)
API: value field is a number in mL/min/kg; no unit string.

Ask: Identify measured clearance corresponding to Nc1cc(C(F)(F)F)c(-c2cc(N3CCOCC3)nc(N3CCOCC3)n2)cn1 [BUPARLISIB]
Result: 3

The measurements presented in this section are drawn from ChEMBL document CHEMBL2016472.
